Where do these numbers come from? They come from patent US11236055B2.

- Method Description: Pharmacokinetic profile in mice
- Type: in vivo
- Condition Summary: mouse; fasted male Hilltop mice, 10 mg/kg oral gavage, plasma, mean of three mice
Endpoint Name: Cmax (ng/mL)

Worked set:
CCc1cnccc1-c1cccc([C@H](C)N(CCCC(=O)NCCS(=O)(=O)NCC(=O)O)S(=O)(=O)c2ccccc2C(F)(F)F)c1 [Compound 20BG]: 0.3
CCc1cnccc1-c1cccc([C@H](C)N(CCCCC(=O)NCCS(=O)(=O)O)S(=O)(=O)c2cccc(Cl)c2C)c1 [Compound 20AS]: 2.3
CCc1cnccc1-c1cccc([C@H](C)N(CCCC(=O)NCCS(=O)(=O)O)S(=O)(=O)c2ccccc2C(F)(F)F)c1 [Compound 20BF]: 0.8
Cc1cnccc1-c1cccc([C@H](C)N(CCCC(=O)NCCS(=O)(=O)NCC(=O)O)S(=O)(=O)c2cccc(Cl)c2C)c1 [Compound 21AN]: 1.9
CCc1cnccc1-c1cccc([C@H](C)N(CCCC(=O)NCCCS(=O)(=O)O)S(=O)(=O)c2cccc(Cl)c2C)c1 [Compound 20AM]: 0.9

I = CNC(=O)C[C@H](NS(=O)(=O)c1ccccc1C(F)(F)F)c1cccc(-c2ccncc2C)c1
II = Cc1cnccc1-c1cccc([C@H](C)N(CCCCNC(=O)NCCS(=O)(=O)NCC(=O)O)S(=O)(=O)c2ccccc2C(F)(F)F)c1 [Compound 28AA]
III = CCc1cnccc1-c1cccc([C@H](C)N(CCCC(=O)NCCS(=O)(=O)O)S(=O)(=O)c2ccccc2C)c1 [Compound 20AR]
IV = CCc1cnccc1-c1cccc([C@H](C)N(CCCC(=O)NCCS(=O)(=O)NCC(=O)O)S(=O)(=O)c2cccc(Cl)c2C)c1 [Compound 21AT]
// ranking: key=Cmax, reverse=True Rank them, then answer with their labels in that order.
I, III, IV, II

a = CCc1cnccc1-c1cccc([C@H](C)N(CCCCNC(=O)NCS(=O)(=O)O)S(=O)(=O)c2ccccc2C(F)(F)F)c1 [Compound 28AH]
b = Cc1cnccc1-c1cccc(C(C)(C)N(CCCNC(=O)NCCS(=O)(=O)O)S(=O)(=O)c2cccc(Cl)c2C)c1 [Compound 29AA]
Name the one with the greater Cmax value, either a or b as given. Answer = label.
a

a = Cc1cnccc1-c1cccc([C@H](C)N(CCCC(=O)NCCS(=O)(=O)NCC(=O)O)S(=O)(=O)c2cccc(Cl)c2Cl)c1 [Compound 36AA]
b = CCc1cnccc1-c1cccc([C@H](C)N(CCCC(=O)NCCS(=O)(=O)NCC(=O)O)S(=O)(=O)c2ccccc2C)c1 [Compound 20BU]
Name the one with the greater Cmax value, either a or b as given. Answer = label.
a
(a: 7.5 ng/mL, b: 1.1 ng/mL)

---

Reported EC50 values follow for various compounds
- System Under Test: mouse TGR5 receptor (Mus musculus)
- Construct: expressed in transfected cells; host or cells: HEK293-EBNA (293 c18, ATCC CRL10852), Hygromycin B selection
- Sequence (Q80SS6 whole entry): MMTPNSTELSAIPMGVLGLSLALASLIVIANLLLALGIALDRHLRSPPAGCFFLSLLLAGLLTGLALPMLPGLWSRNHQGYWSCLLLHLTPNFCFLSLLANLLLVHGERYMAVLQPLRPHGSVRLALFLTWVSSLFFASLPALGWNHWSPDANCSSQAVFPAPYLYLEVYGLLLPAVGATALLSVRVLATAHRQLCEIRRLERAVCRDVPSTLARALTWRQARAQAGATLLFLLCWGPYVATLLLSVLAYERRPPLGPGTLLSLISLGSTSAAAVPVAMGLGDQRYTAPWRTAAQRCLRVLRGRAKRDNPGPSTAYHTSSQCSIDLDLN
- Method Description: Mouse TGR5 cAMP production assay (HTRF, Cisbio cAMP HiRange)
- Format: cell-based
- Condition Summary: HEK293-EBNA cells overexpressing mouse TGR5, HTRF cAMP HiRange; coded A-D
- Method: Mouse TGR5 cAMP Production Assay We evaluated compounds of the present invention for their ability to induce cAMP production in HEK-EBNA cells overexpressing the mouse TGR5 receptor. […] In this second cAMP production assay, the cAMP production was measured in 384-well low volume plates (Greiner; cat #784075) using the Cisbio™ cAMP HiRange HTRF Assay Kit (Cisbio) according to the manufacturer's protocol. […]

Worked set:
Cc1cnccc1-c1cccc([C@H](C)N(CCCC(=O)NCCNS(N)(=O)=O)S(=O)(=O)c2cccc(Cl)c2C)c1: < 100 nM
Cc1c(Cl)cccc1S(=O)(=O)N1CCN(C(=O)CCC(=O)O)CC1c1cccc(-c2ccncc2)c1 (stereo not shown) [Compound 46AF]: 1000 to 30000 nM
Cc1cnccc1-c1cccc(C2CN(C(=O)CCC(=O)O)CCN2S(=O)(=O)c2cccc(Cl)c2Cl)c1 (stereo not shown) [Compound 46AK]: < 100 nM
Cc1cnccc1-c1cccc(C(C)N(CCCC(=O)NCCSO)S(=O)(=O)c2ccccc2C(F)(F)F)c1 (stereo not shown) [Compound 20BC]: 100 to 999 nM
Cc1cnccc1-c1cccc([C@H](C)NS(=O)(=O)c2ccccc2C(F)(F)F)c1: 100 to 999 nM

Field: EC50 (mouse TGR5 receptor (Mus musculus)). Entry: CC(=O)N(CCCCN([C@@H](C)c1cccc(-c2ccncc2C)c1)S(=O)(=O)c1cccc(Cl)c1C)CCC(=O)O
100 to 999 nM

Field: EC50 (mouse TGR5 receptor (Mus musculus)). Entry: Cc1cnccc1-c1cccc([C@H](C)N(CCCC(=O)NCCS(=O)(=O)NCCCC(=O)O)S(=O)(=O)c2ccccc2C(F)(F)F)c1 [Compound 20BK]
< 100 nM
